System: SF-295 CNS
Experiment: NCI-60 one-dose screen, 48 h
Conditions: 10 µM unless noted
The panel holds about 83,000 compounds, 20% with a hit somewhere; the sample as a whole holds those more often. Calls of active or inactive are those of the source. The calls were made as follows: active = growth percent below 10; inactive = the rest.
Classes used: true (1) = active, false (0) = inactive

1. CC(=O)N1CCN(c2ccc(OCC3CO[C@](Cn4ccnc4)(c4ccc(Cl)cc4Cl)O3)cc2)CC1 (some centres undefined): false (0)
2. C=CCNc1ccc2c3c(cccc13)C(=O)N(N1C(=O)c3cccc4cccc(c34)C1=O)C2=O: false (0)
3. Cc1cccc2c3c(sc12)C(c1ccc(Cl)cc1)C(C#N)=C(/N=C/c1ccc(Cl)cc1)O3 (centres undefined): true (1)
4. Oc1ccc(CCl)c2cccnc12: false (0)
5. O=C1NC(=O)C(c2ccccc2)(c2ccccc2)N1Cc1cn(-c2c3ccccc3nc3ccccc23)nn1: false (0)
6. Cc1ccc(C(CC(=O)O)c2c(C)[nH][nH]c2=O)cc1 (centres undefined): false (0)
7. O=C(S)CNC(=O)c1ccccc1: false (0)
8. CCOC(=O)c1c(C)oc2ncnc(N3CCN(C(=O)COc4ccc(C(C)(C)C)cc4)CC3)c12: false (0)
9. O=C(N/N=C/[C@@H](O)[C@H](O)[C@H](O)CO)c1ccc(NC(=O)c2cccnc2)cc1: false (0)
10. COc1cccc(-c2nc(-c3ccc(NC(=O)OC(C)C)cc3)[nH]c2-c2ccnc(Br)c2)c1: true (1)
11. O=c1ccn(Cc2cn(-c3c4ccccc4nc4ccccc34)nn2)c(=O)[nH]1: false (0)
12. Cc1cc(Cl)ccc1NS(=O)(=O)c1ccc(-c2cnc(C3CC3)o2)cc1: false (0)
13. C(=N/Nc1ncnc2nc[nH]c12)/c1ccccn1: false (0)
14. CCN1C(=O)N(CC)C2Nn3c(s/c(=C4\C(=O)Nc5ccccc54)c3=O)=NC21 (centres undefined): false (0)
15. Nc1ccccc1-c1cc2c(c3c1[nH]c1ccccc13)CCCCC2: false (0)
16. COc1ccc(-c2nn(C(=O)c3cc(OC)c(OC)c(OC)c3)c3cc(N)ccc23)cc1: true (1)
17. O=C(CCCCCCSc1nc(-c2ccccc2)cc(-c2ccccc2)n1)NO: false (0)
18. CN(C)CCN1CCN(c2ncccc2C2Nc3ccccc3-n3cccc32)CC1 (centres undefined): false (0)
19. O=C(N/N=C/c1ccc(Cl)cc1)c1ccc(C(F)(F)F)nc1Nc1cccc(C(F)(F)F)c1: true (1)
20. c1ccc(Cc2nn3cc(-c4ccccc4)nc3s2)cc1: false (0)
21. Cc1[nH]c(C(=O)Nc2ccc(C(=O)N3CCNCC3)cc2OC(C)C)c(Cl)c1Cl: false (0)
22. CCOC(=O)c1[nH]c(C)c(C(=O)OCc2ccccc2C#N)c1C: false (0)
23. O=C(N=c1oc2ccccc2cc1-c1cc2ccccc2[nH]1)Nc1ccc(Cl)cc1: false (0)
24. CCOC(=O)Nc1ccc(C(=O)/C=C/c2ccccc2)cc1: false (0)
25. Cc1nn(-c2ccccc2)c(-n2ccnc2)c1/C=N/Nc1nc(-c2ccc(Cl)c(Cl)c2)cs1: false (0)
26. CCCCNc1nc(NN2C(=O)c3cccc4cccc(c34)C2=O)nc(-n2cnc3ccccc32)n1: false (0)
27. CCN1C(=O)N(CC)C2Nn3c(s/c(=C4\C(=O)N(CC(C)C)c5ccccc54)c3=O)=NC21 (centres undefined): false (0)
28. C#Cc1cccc(NC(=O)Nc2ccccc2NC(=O)CCl)c1: false (0)
29. Cn1cc(C(=O)c2nc(-c3cn(C)c4ccc(F)cc34)no2)c2cc(F)ccc21: false (0)

* * *

Attribute: growth
System: TK-10 renal
Assay: NCI-60 one-dose screen, 48 h (100 = growth as untreated, 0 = no growth, -100 = all killed)
Conditions: 10 µM unless noted
About 83,000 compounds went through this panel and 20% of them were active in at least one assay; those are over-represented in the sample as a whole.
result_type: growth (%)

1. Cc1ccc2sc3c(NCCCN)nc4ccccc4c3c(=O)c2c1: 85.2
2. COc1ccc(C(=O)n2nc(-c3ccccc3)nc2N)cc1OC: 112
3. CC1(C)C2CC1C1(/C=N\Nc3ccccc3)C(C2)C(C#N)(C#N)C1(C#N)C#N (configuration not stated): 133
4. CCOC(=O)c1c2c(n(-c3ccc(C#N)cc3)c1-c1ccccc1)C=CCC2: 96.5
5. CCCCC1CCCC12NC(=O)NC2=O (configuration not stated): 92.7
6. Cc1ccc2nc(NC(=O)CSc3nc(Cl)c(C#N)c(-c4ccccc4)n3)sc2c1: 107
7. CN(C)CCCNc1nc2ccccc2c2c(=O)c3cc(F)ccc3sc12: 59.7
8. Cc1cc(C)c(-c2c(N)cc(Br)cc2Br)c(N)c1: 72
9. COc1ccc(OC)c(/C=C2\Oc3cc(OCCN4CCC(Cc5ccccc5)CC4)ccc3C2=O)c1: 97.7
10. COc1ccc(S(=O)(=O)n2c3ccccc3n3ncc(-c4nnc(C)o4)c23)cc1: 76.1
11. Fc1cc(-c2nnc3n2NC(=Nc2ccc(Cl)cc2)CS3)c(Cl)cc1Cl: 91.6
12. O=C(N/N=C/c1ccc(Cl)cc1)c1ccc(C(F)(F)F)nc1Nc1cccc(C(F)(F)F)c1: 26.6
13. CCc1ccc(Oc2c(-c3ccc(OCc4ccc(Cl)cc4)cc3O)nn(C)c2C(F)(F)F)cc1: -1.88
14. COc1ccc(-c2nc3sc(-c4ccc(Cl)cc4)cn3n2)cc1: -30.8
15. Cc1nn(-c2ccccc2)c(-n2ccnc2)c1/C=N/Nc1nc(-c2ccc(F)cc2)cs1: 98.3
16. CCCCC[C@H](O)C/C=C1/C(=O)C=C[C@@H]1C/C=C\CCCC(=O)O: 111
17. C=C1CC[C@@]2(C#N)[C@H]3[C@H](CC[C@@H]2C)[C@@H](C)C[C@@H](CC(C)(C)C#N)[C@H]13: 50.6
18. O=C(N/N=C/[C@H](O)[C@@H](O)[C@@H](O)[C@H](O)CO)c1ccc(NC(=O)c2cccnc2)cc1: 106
19. c1ccc2cc(C[n+]3ccn(CCCCCCn4cc[n+](Cc5ccc6ccccc6c5)c4)c3)ccc2c1: 83.1
20. N#Cc1c(-c2ccc(Cl)cc2)nc(NCCO)[nH]c1=O: 97.9
21. CSc1ncccc1C(=O)OCC(=O)Nc1oc(C)c2c(C)n[nH]c(=O)c12: 102
22. Cc1ccc(C(=O)NN2C(=O)CSC2c2cccc([N+](=O)[O-])c2)cn1 (configuration not stated): 98.3
23. c1ccc2c(-c3nc(-c4c[nH]c5ccncc45)cs3)c[nH]c2c1: 56.4
24. Cc1cccc2c1S/C(=C/c1ccc([N+](=O)[O-])cc1)C2=O: 166
25. CC1(C)C2CC1C1(/C=N/NC(N)=S)C(C2)C(C#N)(C#N)C1(C#N)C#N (configuration not stated): 116
26. CCOC(=O)/C(C#N)=C\Nc1ccc2ncnc(Nc3ccc(Cl)cc3Cl)c2c1: 44.2
27. Cc1nc2nc(SCC(=O)O)[nH]c2c(=O)[nH]1: 101
28. COc1cc(C)c(Cc2cnc(N)nc2N)cc1OC: 116
29. Nc1ccc(Sc2ccc([N+](=O)[O-])c3nonc23)cc1: 111
30. COc1ccc(-c2ncnc3c2ncn3CC#CCCl)cc1: 69.8
31. c1cc(NCCc2ccncc2)nc(-n2cnc3ccccc32)c1: 86.9
32. Clc1ccc(C(/C=C/c2sc(Cl)nc2Cl)=N/Nc2cc(Cl)cc(Cl)c2)cc1: 119

* * *

We begin with a simple list: items and their reported growth.
Tested on: OVCAR-4 ovarian
Assay: NCI-60 one-dose screen, 48 h (100 = growth as untreated, 0 = no growth, -100 = all killed)
Conditions: 10 µM unless noted
About 83,000 compounds went through this panel and 20% of them were active in at least one assay; those are over-represented in the sample as a whole.
result_type: growth (%)

1. CCN(CC)Cc1cc(Nc2c3ccc(Cl)cc3nc3ccc(OC)cc23)ccc1O: 58.6
2. Cc1ccc(S(=O)(=O)Oc2ccc(NC(=O)c3ccc(Cl)cc3)cc2)cc1: 96.5
3. Cc1ccc2c(n1)C(=O)C(Cl)=C(Nc1ccccc1C(C)C)C2=O: 28.4
4. Cc1cccc2c3c(sc12)C(c1ccc(F)cc1)C(C#N)=C(N)O3 (stereo not drawn): 60.8
5. O=C1c2cccc3cccc(c23)C(=O)N1Nc1nc(NC2CCCCC2)nc(N2CCOCC2)n1: 106
6. COc1cc(C(=O)c2cnc(-c3c[nH]c4cccc(C)c34)[nH]2)cc(OC)c1OC: 34.5
7. Nc1ccccc1-c1cc2c(c3c1[nH]c1ccccc13)CCCCC2: 105
8. Fc1cc2c(cc1Cl)N(c1ncnc3ccc(-c4cnc5cnccn45)cc13)CC2: 94.8
9. CC(C)C(=O)Nc1ccc(-c2nc(-c3cccc(OCCN4CCOCC4)c3)c(-c3ccnc(Br)c3)[nH]2)cc1: 60
10. O=C(O)C(c1ccccc1)N1C(=O)CSC1=S (stereo not drawn): 109
11. CC/C=C\C[C@@H](O)C/C=C1/C(=O)C=C[C@H]1C/C=C\CCCC(=O)OC: 44.9
12. COc1c(B(O)O)cc(C)cc1-c1nc2ccc3[nH]ncc3c2c2c1CCCC2: 102
13. COc1ccc(OC)c(/C=C/C(=O)N/N=C/c2ccccc2)c1: 78.2
14. CNc1ccc(Nc2cccc(C)c2)c2c1C(=O)c1ccccc1C2=O: 81.6
15. CS(=O)(=O)N(c1cc(-c2ccc3ncnc(Nc4ccc(F)c(Cl)c4)c3c2)cnc1Cl)S(C)(=O)=O: 65.7
16. COc1cc(Nc2cn[nH]c2-c2ccc(Cl)cc2)cc(OC)c1OC: 61.5
17. C[N+]1=C(/C=C/c2ccc(O)c3ncccc23)C(C)(C)c2ccccc21: 27.7
18. Cc1cccc(OCC(O)CN2CCN(c3ccc(Cl)cc3)CC2)c1 (stereo not drawn): 106
19. CCOC(=O)NCCc1ccccc1: 121
20. CCOC(=O)CCN(C(=O)Nc1ccccc1)C1CCCCC1: 113
21. CCCCCCn1c(-c2ccc(C(=O)O/N=C(\N)c3ccc(OC)cc3)cc2)nc(-c2ccccc2)c1-c1ccccc1: 7.82
22. O=c1n(Cc2ccc3ccccc3c2)ccn1Cc1ccc2ccccc2c1: 69.3
23. COc1cc(OCc2cccc(-c3ccc(C(O)c4nccs4)cc3)c2C)cc(OC)c1CNCCNC(C)=O (stereo not drawn): 91.8
24. O=C(N/N=C/[C@@H](O)[C@H](O)[C@H](O)CO)c1ccc(NC(=O)c2cccnc2)cc1: 114
25. Clc1ccc(C(/C=C/c2sc(Cl)nc2Cl)=N/Nc2cc(Cl)cc(Cl)c2)cc1: 100
26. N#C/C(=C\c1cccc2cnccc12)n1nnc2cccc(F)c21: 38.7
27. O=C(Oc1cccc2ccccc12)Oc1cccc2ccccc12: 113
28. CSc1ccc2c(c1)c(CCN)c(C)n2Cc1ccc(Cl)c(Cl)c1: -93.2
